// IC50 lookup, one value per entry
System: NIH3T3
Test: Cytotoxicity against mouse NIH/3T3 cells after 24 hrs by MTT assay
Format: cell-based
Settings: NIH3T3, 24 h
result.type: IC50 (µM)

{"structure.smiles": "Oc1cccc(/C=N/n2c(S)nnc2-c2cnccn2)c1", "target": "NIH3T3", "reported": 151}
{"structure.smiles": "COc1ccc(/C=N/n2c(S)nnc2-c2cnccn2)cc1OC", "target": "NIH3T3", "reported": 163}
{"structure.smiles": "Sc1nnc(-c2cnccn2)n1/N=C/c1ccc(Cl)cc1", "target": "NIH3T3", "reported": 218}
{"structure.smiles": "Cc1ccc(/C=N/n2c(S)nnc2-c2cnccn2)cc1", "target": "NIH3T3", "reported": 156}
{"structure.smiles": "Oc1ccc(/C=N/n2c(S)nnc2-c2cnccn2)cc1", "target": "NIH3T3", "reported": 175}
{"structure.smiles": "Oc1ccccc1/C=N/n1c(S)nnc1-c1cnccn1", "target": "NIH3T3", "reported": 131}

---

Biological target: 3-oxoacyl-[acyl-carrier-protein] synthase 3 (Escherichia coli)
Sequence (C3TDZ2 whole entry): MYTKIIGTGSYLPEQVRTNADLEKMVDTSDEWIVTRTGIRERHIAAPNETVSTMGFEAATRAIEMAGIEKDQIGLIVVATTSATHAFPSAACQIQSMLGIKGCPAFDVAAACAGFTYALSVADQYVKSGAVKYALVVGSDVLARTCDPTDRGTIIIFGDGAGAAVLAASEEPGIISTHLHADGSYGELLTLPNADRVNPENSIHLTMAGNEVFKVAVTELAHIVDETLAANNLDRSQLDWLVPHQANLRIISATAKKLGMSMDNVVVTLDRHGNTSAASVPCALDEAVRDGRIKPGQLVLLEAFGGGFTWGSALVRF
pIC50: −log10 of the molar value.

{"structure.smiles": "Oc1cccc(/C=N/n2c(S)nnc2-c2cnccn2)c1", "inequality.operator": "=", "pIC50": 4.32}
{"structure.smiles": "COc1cc(/C=N/n2c(S)nnc2-c2cnccn2)cc(OC)c1OC", "inequality.operator": "=", "pIC50": 4.82}
{"structure.smiles": "Cc1ccc(/C=N/n2c(S)nnc2-c2cnccn2)cc1", "inequality.operator": "=", "pIC50": 4.57}
{"structure.smiles": "Sc1nnc(-c2cnccn2)n1/N=C/c1ccc(Cl)cc1Cl", "inequality.operator": "<", "pIC50": 4.00}
{"structure.smiles": "COc1ccccc1/C=N/n1c(S)nnc1-c1cnccn1", "inequality.operator": "=", "pIC50": 4.64}
{"structure.smiles": "Oc1ccc(/C=N/n2c(S)nnc2-c2cnccn2)cc1", "inequality.operator": "=", "pIC50": 4.53}
{"structure.smiles": "COc1cc(OC)c(OC)cc1/C=N/n1c(S)nnc1-c1cnccn1", "inequality.operator": "=", "pIC50": 4.89}

---

Test system: NIH3T3
Assay: Cytotoxicity against mouse NIH/3T3 cells after 24 hrs by MTT assay
Type: cell-based
Conditions: NIH3T3, 24 h

{"structure.smiles": "COc1ccccc1/C=N/n1c(S)nnc1-c1cnccn1", "IC50": "173 µM"}
{"structure.smiles": "COc1cc(/C=N/n2c(S)nnc2-c2cnccn2)cc(OC)c1OC", "IC50": "169 µM"}
{"structure.smiles": "Sc1nnc(-c2cnccn2)n1/N=C/c1ccc(Cl)cc1Cl", "IC50": "206 µM"}
{"structure.smiles": "Oc1ccc(/C=N/n2c(S)nnc2-c2cnccn2)cc1O", "IC50": "148 µM"}
{"structure.smiles": "COc1cc(OC)c(OC)cc1/C=N/n1c(S)nnc1-c1cnccn1", "IC50": "142 µM"}
{"structure.smiles": "NC[C@H]1O[C@H](O[C@H]2[C@H](O)[C@@H](O[C@H]3O[C@H](CO)[C@@H](O)[C@H](N)[C@H]3O)[C@H](N)C[C@@H]2N)[C@H](N)[C@@H](O)[C@@H]1O", "IC50": "140 µM"}

---

Tested on: Pseudomonas aeruginosa
Assay: Antimicrobial activity against Pseudomonas aeruginosa ATCC 27853 assessed as […] growth inhibition after 24 hrs by two-fold serial broth dilution method
Assay type: functional
Conditions: ATCC 27853, 24 h
// MIC lookup, one value per entry

{"structure.smiles": "Fc1ccccc1/C=N/n1c(S)nnc1-c1cnccn1", "inequality.operator": "=", "MIC [µg/mL]": 50}
{"structure.smiles": "O=[N+]([O-])c1ccc(/C=N/n2c(S)nnc2-c2cnccn2)cc1", "inequality.operator": "=", "MIC [µg/mL]": 25}
{"structure.smiles": "COc1cc(/C=N/n2c(S)nnc2-c2cnccn2)cc(OC)c1OC", "inequality.operator": "=", "MIC [µg/mL]": 12.5}
{"structure.smiles": "Sc1nnc(-c2cnccn2)n1/N=C/c1ccc(Cl)cc1Cl", "inequality.operator": ">", "MIC [µg/mL]": 50}
{"structure.smiles": "COc1cccc(/C=N/n2c(S)nnc2-c2cnccn2)c1", "inequality.operator": "=", "MIC [µg/mL]": 50}
{"structure.smiles": "Oc1ccc(/C=N/n2c(S)nnc2-c2cnccn2)cc1", "inequality.operator": "=", "MIC [µg/mL]": 25}

---

Test system: Pseudomonas aeruginosa
Test: Antimicrobial activity against Pseudomonas aeruginosa ATCC 27853 assessed as […] growth inhibition after 24 hrs by two-fold serial broth dilution method
Type: functional
Settings: ATCC 27853, 24 h
// MIC lookup, one value per entry

{"structure.smiles": "Cc1ccc(/C=N/n2c(S)nnc2-c2cnccn2)cc1", "result.units": "µg/mL", "inequality.operator": "=", "MIC": 50}
{"structure.smiles": "Sc1nnc(-c2cnccn2)n1/N=C/c1ccc(Br)cc1", "result.units": "µg/mL", "inequality.operator": "=", "MIC": 50}
{"structure.smiles": "Oc1ccc(/C=N/n2c(S)nnc2-c2cnccn2)cc1O", "result.units": "µg/mL", "inequality.operator": "=", "MIC": 12.5}
{"structure.smiles": "Fc1ccc(/C=N/n2c(S)nnc2-c2cnccn2)cc1", "result.units": "µg/mL", "inequality.operator": ">", "MIC": 50}
{"structure.smiles": "COc1ccc(/C=N/n2c(S)nnc2-c2cnccn2)cc1", "result.units": "µg/mL", "inequality.operator": "=", "MIC": 25}

---

// MIC lookup, one value per entry
System: Pseudomonas aeruginosa
Test: Antimicrobial activity against Pseudomonas aeruginosa ATCC 27853 assessed as […] growth inhibition after 24 hrs by two-fold serial broth dilution method
Type: functional
Settings: ATCC 27853, 24 h

{"structure.smiles": "Sc1nnc(-c2cnccn2)n1/N=C/c1ccc(Cl)cc1", "result.units": "µg/mL", "inequality.operator": ">", "MIC": 50}
{"structure.smiles": "Oc1cccc(/C=N/n2c(S)nnc2-c2cnccn2)c1", "result.units": "µg/mL", "inequality.operator": "=", "MIC": 25}
{"structure.smiles": "Sc1nnc(-c2cnccn2)n1/N=C/c1ccccc1", "result.units": "µg/mL", "inequality.operator": "=", "MIC": 25}
{"structure.smiles": "Oc1ccccc1/C=N/n1c(S)nnc1-c1cnccn1", "result.units": "µg/mL", "inequality.operator": "=", "MIC": 1.56}
{"structure.smiles": "COc1ccccc1/C=N/n1c(S)nnc1-c1cnccn1", "result.units": "µg/mL", "inequality.operator": "=", "MIC": 25}
{"structure.smiles": "Sc1nnc(-c2cnccn2)n1/N=C/C=C/c1ccccc1", "result.units": "µg/mL", "inequality.operator": "=", "MIC": 25}

---

System: Staphylococcus aureus
Test: Antimicrobial activity against Staphylococcus aureus ATCC 25923 assessed as […] growth inhibition after 24 hrs by two-fold serial broth dilution method
Type: functional
Conditions: ATCC 25923, 24 h

{"compound": "COc1ccc(/C=N/n2c(S)nnc2-c2cnccn2)cc1", "result.units": "µg/mL", "inequality.operator": "=", "MIC": 50}
{"compound": "COc1cc(OC)c(OC)cc1/C=N/n1c(S)nnc1-c1cnccn1", "result.units": "µg/mL", "inequality.operator": "=", "MIC": 25}
{"compound": "Oc1ccc(/C=N/n2c(S)nnc2-c2cnccn2)cc1", "result.units": "µg/mL", "inequality.operator": "=", "MIC": 50}
{"compound": "Oc1ccccc1/C=N/n1c(S)nnc1-c1cnccn1", "result.units": "µg/mL", "inequality.operator": "=", "MIC": 1.56}
{"compound": "COc1cccc(/C=N/n2c(S)nnc2-c2cnccn2)c1", "result.units": "µg/mL", "inequality.operator": ">", "MIC": 50}
{"compound": "Fc1ccc(/C=N/n2c(S)nnc2-c2cnccn2)cc1", "result.units": "µg/mL", "inequality.operator": "=", "MIC": 50}
{"compound": "Cc1ccc(/C=N/n2c(S)nnc2-c2cnccn2)cc1", "result.units": "µg/mL", "inequality.operator": "=", "MIC": 25}
{"compound": "Oc1cccc(/C=N/n2c(S)nnc2-c2cnccn2)c1", "result.units": "µg/mL", "inequality.operator": ">", "MIC": 50}
{"compound": "Sc1nnc(-c2cnccn2)n1/N=C/c1ccc(Cl)cc1Cl", "result.units": "µg/mL", "inequality.operator": "=", "MIC": 50}
{"compound": "Fc1ccccc1/C=N/n1c(S)nnc1-c1cnccn1", "result.units": "µg/mL", "inequality.operator": "=", "MIC": 50}
{"compound": "Sc1nnc(-c2cnccn2)n1/N=C/c1ccc(Cl)cc1", "result.units": "µg/mL", "inequality.operator": "=", "MIC": 50}
{"compound": "Fc1cccc(/C=N/n2c(S)nnc2-c2cnccn2)c1", "result.units": "µg/mL", "inequality.operator": "=", "MIC": 50}
{"compound": "COc1ccccc1/C=N/n1c(S)nnc1-c1cnccn1", "result.units": "µg/mL", "inequality.operator": "=", "MIC": 25}
{"compound": "COc1ccc(/C=N/n2c(S)nnc2-c2cnccn2)cc1OC", "result.units": "µg/mL", "inequality.operator": "=", "MIC": 12.5}
{"compound": "Oc1ccc(/C=N/n2c(S)nnc2-c2cnccn2)cc1O", "result.units": "µg/mL", "inequality.operator": "=", "MIC": 25}
{"compound": "Sc1nnc(-c2cnccn2)n1/N=C/c1ccccc1", "result.units": "µg/mL", "inequality.operator": "=", "MIC": 50}
{"compound": "Sc1nnc(-c2cnccn2)n1/N=C/c1ccc(Br)cc1", "result.units": "µg/mL", "inequality.operator": "=", "MIC": 50}
{"compound": "NC[C@H]1O[C@H](O[C@H]2[C@H](O)[C@@H](O[C@H]3O[C@H](CO)[C@@H](O)[C@H](N)[C@H]3O)[C@H](N)C[C@@H]2N)[C@H](N)[C@@H](O)[C@@H]1O [BEKANAMYCIN]", "result.units": "µg/mL", "inequality.operator": "=", "MIC": 1.56}
{"compound": "O=[N+]([O-])c1ccc(/C=N/n2c(S)nnc2-c2cnccn2)cc1", "result.units": "µg/mL", "inequality.operator": ">", "MIC": 50}
{"compound": "COc1cc(/C=N/n2c(S)nnc2-c2cnccn2)cc(OC)c1OC", "result.units": "µg/mL", "inequality.operator": "=", "MIC": 12.5}
{"compound": "Sc1nnc(-c2cnccn2)n1/N=C/C=C/c1ccccc1", "result.units": "µg/mL", "inequality.operator": "=", "MIC": 50}
